Experiment: folding stability dG unfold from trypsin proteolysis; higher = more stable
metric: folding stability dG unfold
Quick note: number first, unit second.

sequence record: SAGDALKDIFPGLEIEPHEKPVKVPPGKPVEFAFIIRMPDGEIMIFDMHFNPGGEVRVRVLTIKLPEKSAGG [r19_125_TrROS]
folding stability dG unfold: 2.88 kcal/mol
//
sequence record: SAGGDWMLVIEIEIEGQPTPDGQIKVEISIEIELVRPPPPPITPWDRMAEEARDKNPNIPPDDPEAMTSAGG [r13_136_TrROS]
folding stability dG unfold: 2.12 kcal/mol
//
sequence record: SAGGSAGGKLENLPENVTEVRIEKNENGEYTIYVRNKETNEYVKLKVEKKDGEWKIVEKEVFPKSAGGSAGG [r6_937_TrROS_Hall]
folding stability dG unfold: 2.09 kcal/mol

Here is another sequence to look at.
Prompt: State, in one line, measured folding stability dG unfold of SAGMVKTVTLSREEVEKLVRELGRSPEEMTLEEFAERLEELFPGATVTVTVDTKTGTYTITITFPPSLASAG [r5_264_JUSTAS]
Response: 3.61 kcal/mol

----------
Assay: folding stability dG unfold from trypsin proteolysis; higher = more stable
Reported values of folding stability dG unfold for individual entries
Write it as a number; the unit kcal/mol goes unstated.

Consider the reported folding stability dG unfold for these sequences:
sequence record: SAGGEIEIVVETPEDLEKAKELAEELAKALEEAGLEIEEVKVELVEETVVNEDGEEKKRYVLKITFPSAGGS [r16_591_TrROS_Hall]
folding stability dG unfold (kcal/mol): 2.46
//
sequence record: SAGGMKKITITIPLEELKNLTPEERKEKLKELAEEIAKKLGLPPGAKIKKIEVEEVDGKLYVKIEIESAGGS [r16_368_TrROS_Hall]
folding stability dG unfold (kcal/mol): 3.82
//
sequence record: SAGGMTEVSVSEELRAEGGGLERVLVVTITTVTKVYPVGSSNKVEYEESTIVIPADDPAALEAAGVLLSAGG [r13_670_JUSTAS]
folding stability dG unfold (kcal/mol): 0.563
//
sequence record: SAGGMPLEDMSLEELKARLEEALEELRAKLPPGEKKTLTLTVTLTVVDKETGETRTVTLTVTLTLPAPSAGG [r13_385_TrROS_Hall]
folding stability dG unfold (kcal/mol): 3.43
//
sequence record: SAGMKVEVVERKGPDGRLVRVVKETTITPVPGPAVAEANGAPLTPEDEKVVTVTTTVLDPEGKVLETVDSAG [r5_128_JUSTAS]
folding stability dG unfold (kcal/mol): -0.903

Prompt: Determine from records and report folding stability dG unfold for SAGDVKIDIHYDEDGYIRVTVPYKSPHEAREEADELARWLAKQFGPKNIDINVEPHPNGMLVIRIPIKKSAG [r5_772_TrROS]
Response: 2.17

Prompt: // Input: SAGGFRINIPPNMPKEKLEEIQDEAEEESGMPVTINTNPDDGSLHIEFPGGPEWKQRRIQDEIRELLSAGGS [r16_227_TrROS] . Output its folding stability dG unfold only.
Response: -0.507

----------
# folding stability dG unfold per record follows
Assay: folding stability dG unfold (combined trypsin and chymotrypsin); higher = more stable

sequence record: SMEEIAKEIAEKAGVNWENVEFKVEEKEDPETGEKYLIAHVVIKLPNEKYIAVIDLRDKKILEIWKLEDISA [r9_1219_TrMRF]
result: 3.61 kcal/mol

Prompt: Identify folding stability dG unfold associated with the sequence SAGGSAGGMKPTVEVRPVPPSARMVVTITLPGSGKKVTIPVPDAPAPEEPERVIEEALAYVKTSSAGGSAGG [r6_331_JUSTAS]
Response: < -1 kcal/mol

Prompt: For the sequence SAGGSAGGSKTKTIEIEVDGKKVRITVNEDGSVTIEVYYPGKPVKTIEIPGMSIEEILKALLESAGGSAGGS [r20_8_TrROS_Hall] , give its measured folding stability dG unfold value.
Response: 2.73 kcal/mol
